- TARGET OF ASSAY: T1, mouse VTCN1 expressed on 293 cells (mouse, UniProt Q7TSP5 25-257)
- T1 construct: whole, on cells
- T1 sequence (looked up): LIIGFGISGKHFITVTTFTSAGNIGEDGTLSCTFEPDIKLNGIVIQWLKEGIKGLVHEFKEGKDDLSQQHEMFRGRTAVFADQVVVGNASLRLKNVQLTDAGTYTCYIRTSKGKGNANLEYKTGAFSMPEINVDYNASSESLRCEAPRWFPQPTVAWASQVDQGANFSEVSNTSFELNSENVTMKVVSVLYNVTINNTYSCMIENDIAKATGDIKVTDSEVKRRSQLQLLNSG
- MEASUREMENT PROTOCOL: flow cytometry, antibody titration on 293-muVTCN1 cells
// reported EC50 per item
MEASURED PROPERTY: EC50 (nM)

BINDER | MEASURED PROPERTY | REPORTED
16H12_60B4 (antibody, V domains shown, Fully human antibody) VH: QVQVVQSGAEVKKPGSSVKVSCKASGDTFSNYAISWVRQAPGQGLEWMGGIIPIFGITNYAQKFQGRVTIIADKSTRTAYMELSSLRSEDTAVYYCSRGGPYFDYWGQGILVTVSS VL: EIVMTQSPATLSVSPGERATLSCRASQSVSSNLAWYQQKPGQAPRLLIYGASTRATGIPARFSGSGSGTEFTLTISSLQSEDFAVYYCQQYKKWPFTFGPGTKVDIK | EC50 | 4.8
4C7_63A1 (antibody, V domains shown, Fully human antibody) VH: QVQLQESGPGLVKPSGTLSLTCAVSGGSISSSNWWSWVRQPPGKGLEAIGEIYHSGNTNYNPSLKSRVTISVDKSKNQFSLKLSSVTAADTAIYYCARDGYSSGWYWGYFDYWGQGTLVTVSS VL: EIVMTQSPATLSVSPGERATLSCRASQSVNSNLAWYQQKPGQAPWLLIYGASTRATGIPARFSGSGSGTEFTLTISSLQSEDFAVYYCQQYNHWPYTFGQGTKLEIK | EC50 | 3.5
7G7_44C6 (antibody, V domains shown, Fully human antibody) VH: QVQLQESGPGLVKPSETLSLTCTVSGGSISHYYWSWIRQPPGKGLEWIGYIYYSGPTNYNPSLKSRVTISVDTSKNQFSLKLSSVTAADTAVYYCARTYYYGSGSFPDAFDIWGQGTMVTVSS VL: KIVLTQSPATLSLSPGERATLSCRASQSVSSYLAWYQQTPGQAPRLLIYDASNRATGIPARFSVSGSGTDFTLTISSLEPEDFAVYYCQQRSSWPLTFGGGTKLEIK | EC50 | 45
